Tested on: rodent lifetime carcinogenesis bioassay, tumor incidence TD50
Test name: carcinogenic potency in animals, long-term in vivo studies, CPDB compilation (AID 1745844)
Condition description: mouse; strain B6C3F1; females; in feed; site: liver; lesion: hepatocellular adenoma + hepatocellular carcinoma; dosed 103 weeks; study length 104 weeks
As shown below, each of these molecules has a reported TD50 value.

> print(dat)
                  chemical.structure  property.label     measurement
1                C=CCc1ccc(O)c(OC)c1            TD50  2910 mg/kg/day
2  CNc1ccc(N(CCO)CCO)cc1[N+](=O)[O-]            TD50   179 mg/kg/day

Field: TD50 (rodent lifetime carcinogenesis bioassay, tumor incidence TD50). Entry: COc1ccccc1[N+](=O)[O-]
194 mg/kg/day
